The origin of these recorded values is patent US20200261470A1.

# Tested on: HL60 cells
# protocol-details: Proliferation measured with WST-8 reagent, HL60 cells
# Assay type: cell-based
# conditions-used: Homo sapiens, HL-60; HL60 cell line, single agent; read-out: IC50 values for PARP inhibitors in AML cell lines
# Description: Proliferation was measured following incubation with WST-8 reagent. Synergistic/additive effects were calculated using Compusyn software at varying drug concentrations. Flow cytometry for apoptosis, viability, DNA damage/repair, and cell cycle effects following combination versus single drug treatment were also performed.
pIC50: −log10 of the molar value.
Recorded pIC50 by entry

# compound-structure, pIC50
records = [
    ("NC(=O)c1cccc2cn(-c3ccc([C@@H]4CCCNC4)cc3)nc12", 5.60),
    ("CNCc1ccc(-c2[nH]c3cc(F)cc4c3c2CCNC4=O)cc1", 4.12),
    ("O=C(c1cc(Cc2n[nH]c(=O)c3ccccc23)ccc1F)N1CCN(C(=O)C2CC2)CC1", 5.05),
    ("Cn1ncnc1[C@H]1c2n[nH]c(=O)c3cc(F)cc(c23)N[C@@H]1c1ccc(F)cc1", 6.70),
    ("C[C@]1(c2nc3c(C(N)=O)cccc3[nH]2)CCCN1", 4.06),
]
